# RUN DESCRIPTION: in vivo
# EXPERIMENTAL CONDITIONS: monkey
ASSAY ENDPOINT: half-life (h)
Please give a number only; it is taken to be in h.

Specify reported half-life for the compound shown: CO/N=C(\C(=O)NC1C(=O)N2C(C(=O)[O-])=C(Cn3cc[n+]4ncccc34)CSC12)c1nsc(N)n1 (stereo not shown) [Control compound (1)]
1.28

Hello, the source for this data is patent US6458950B1, in case you need it.
